- System: HCT-116 colon
- MEASUREMENT NOTES: NCI tumour cell line growth inhibition, 48 h
*1 amine or outer side, *2 acyl side, *3 side chain or, on linkers, in order; H or OH if unused. Where a SMILES comes first, the peptide text is derived from it. Bridges are numbered along the chain shown (N, C = ends). Roman numbers before positions name the chains, in order. [ ]: non-standard residue; d: D form. Actinocin(9to1) = Cc1c2oc3c(C)ccc(C(=O)[*:1])c3nc-2c(C(=O)[*:2])c(N)c1=O; NMeV = CN[CH](C(=O)O)C(C)C; Sar = CNCC(=O)O
MEASURE: GI50

>>> meas_value("O=C1NCN(c2ccccc2)C12CCN(CCCC(c1ccc(F)cc1)c1ccc(F)cc1)CC2")
"1.58 µM"
>>> meas_value("CN(C)C[C@H]1CCn2c(c(C3=C(c4cn(C)c5ccccc45)C(=O)NC3=O)c3ccccc32)C1")
"3.47 µM"
>>> meas_value("Oc1[nH]c(N=C2N=c3ccccc3=N2)c2ccccc12")
"7.3 µM"
>>> meas_value("Cc1c2oc3c(C)ccc(C(=O)OC(C)C4NC(=O)C(C(C)C)N(C)C(=O)CN(C)C(=O)C5CCCN5C(=O)C(C(C)C)NC4=O)c3nc-2c(C(=O)OC(C)C2NC(=O)C(C(C)C)N(C)C(=O)CN(C)C(=O)C3CCCN3C(=O)C(C(C)C)NC2=O)c(N)c1=O (stereo not drawn) (I: cyclo([Sar][NMeV]TVP) / II: cyclo([Sar][NMeV]TVP); linker I:3-II:3 via Actinocin(9to1); configuration not given here)")
"< 0.01 µM"
>>> meas_value("Cc1cc(C(=O)Nc2cc(Oc3ccc4nc(NC(=O)C5CC5)cn4n3)ccc2C)n(C)n1")
"5.66 µM"
>>> meas_value("C=C(C)[C@@H]1CC[C@]2(COCCCNCCCN)CC[C@]3(C)[C@H](CC[C@@H]4[C@@]5(C)CC[C@H](OCCCN)C(C)(C)[C@@H]5CC[C@]43C)[C@@H]12")
"0.898 µM"
>>> meas_value("COc1cccc(-n2ncc3c(N/N=C/c4ccc(C)cc4)ncnc32)c1")
"> 25 µM"
>>> meas_value("CC(CN(C)C)S(=O)(=O)c1ccc(-c2cnc(N)c(C(=O)Nc3ccccc3)n2)cc1 (stereo not drawn)")
"4.88 µM"
>>> meas_value("C=CCNc1nc(O)c(/C=C2\\C=Nc3ncccc32)s1")
"1.52 µM"
>>> meas_value("COc1cc2c3c(n(CCCCNC(=O)OC(C)(C)C)c(=O)c2cc1OC)-c1cc2c(cc1C3=O)OCO2")
"> 100 µM"
>>> meas_value("CC(C)=O.O=C([O-])C(F)(F)F.O=C([O-])C(F)(F)F.O=C([O-])C(F)(F)F.O=C([O-])C(F)(F)F.[Rh+2].[Rh+2]")
"54 µM"
>>> meas_value("O=C(O)/C=C/c1ccc[c]([Sb](=[O])([OH])[OH])c1")
"> 100 µM"
>>> meas_value("CC/C=C\\C[C@H](O)C/C=C1/C(=O)C=C[C@@H]1C/C=C\\CCCC(=O)OC(C)C")
"0.245 µM"
